Source listed as patent US20240140938A1.

target: UniProt Q96PD7; assay: DGAT2 Enzymatic Activity Assay; type: biochemical; conditions: hDGAT2 Sf-9 membrane prep; 13C18-triolein product by LC/MS/MS; 25 μM diolein, 5 μM 13C oleoyl-CoA
For each of the molecules below, state its pIC50.
In plain terms, pIC50 is the concentration in mol/L turned into minus its base-10 logarithm.

Record C[C@]1(NC(=O)[C@@H]2CCc3c(-c4cccc(OC(F)F)c4)nn(C(=O)C4CC4)c3C2)CCS(=O)(=O)C1 , field pIC50: 5.54

Record CC(C)NC(=O)N1CCC(C)(NC(=O)[C@@H]2CCc3c(-c4cc(OC(F)F)ccc4F)nn(C(C)C)c3C2)C1 (some centres unmarked) , field pIC50: 7.53

Record CC(C)n1nc(-c2cc(OC(F)F)ccc2F)c2c1C[C@H](C(=O)NC1(C)CCN(C(=O)C3CC3)C1)CC2 (some centres unmarked) , field pIC50: 7.58

Record CCOc1cc(-c2nn(C(C)C)c3c2CC[C@@H](C(=O)NC2(C)CS(=O)(=O)C2)C3)c(F)cn1 , field pIC50: 6.93

Record CC(C)(NC(=O)[C@@H]1CCc2c(-c3cccc(OC(F)F)c3)nn(C3CCOCC3)c2C1)c1ccc(C(F)(F)F)nc1 , field pIC50: 6.89

Record CC1(NC(=O)[C@@H]2CCc3c(-c4cc(OC(F)F)ccc4F)nn(S(=O)(=O)C4CC4)c3C2)CS(=O)(=O)C1 , field pIC50: 7.17

Record CC1(NC(=O)[C@@H]2CCc3c(-c4cc(OC(F)F)ccc4F)nn(C4CCCC4O)c3C2)CS(=O)(=O)C1 (single isomer, unassigned) [Example 114c] , field pIC50: 7.00

Record CC(C)n1nc(-c2cc(OC(F)F)ccc2F)c2c1CC(C(=O)N[C@]1(C)CCS(=O)(=O)C1)CO2 (some centres unmarked) , field pIC50: 7.61

Record CC(C)n1nc(-c2cc(OC(F)F)ncc2F)c2c1C[C@H](C(=O)NC1(C)CCS(=O)(=O)CC1)CC2 , field pIC50: 7.36

Record CC(C)n1nc(-c2cc(OC(F)F)ccc2F)c2c1C[C@H](C(=O)NC1(C#N)CCS(=O)(=O)CC1)CC2 , field pIC50: 8.33

Record C[C@]1(NC(=O)[C@@H]2CCc3c(-c4cccc(OC(F)F)c4)nn(C4CCS(=O)(=O)CC4)c3C2)CCS(=O)(=O)C1 , field pIC50: 6.84

###

For each of the compounds below, state its IC50.
target: human DGAT2 (hDGAT2) (Homo sapiens (Human)); assay: DGAT2 Enzymatic Activity Assay; type: biochemical; details: hDGAT2 Sf-9 membrane prep; 13C18-triolein product by LC/MS/MS; 25 μM diolein, 5 μM 13C oleoyl-CoA
Express it in nM; write the number only.

Record Cc1ncc(OC(F)F)cc1-c1nn(C(C)C)c2c1CC[C@@H](C(=O)NC1(C)CS(=O)(=O)C1)C2 , field IC50: 170

Record CC(C)n1nc(-c2cccc(OC(F)F)c2)c2c1C[C@H](C(=O)N[C@@]1(C)CCS(=O)(=O)C1)CC2 , field IC50: 59.8

Record O=C(NC1(CO)CCC(F)(F)C1)[C@@H]1CCc2c(-c3cccc(OC(F)F)c3)nn(-c3ccc(F)cn3)c2C1 (single isomer, unassigned) [Example 8b] , field IC50: 35

Record CC(n1nc(-c2cc(OCC(F)(F)F)ncc2F)c2c1C[C@H](C(=O)NC1(C)CCS(=O)(=O)CC1)CC2)C(C)(C)O (single isomer, unassigned) [Example 107b] , field IC50: 5.4

Record CC(C)n1nc(-c2cccc(OC(F)F)c2)c2c1C[C@H](C(=O)NCc1cnoc1)CC2 , field IC50: 4560

Record CC(C)n1nc(-c2cccc(OC3CC3)c2)c2c1C[C@H](C(=O)NC1(C)CCS(=O)(=O)CC1)CC2 , field IC50: 29.1

Record COCC(C)(C)NC(=O)[C@@H]1CCc2c(-c3cccc(OC(F)F)c3)nn(C(C)C)c2C1 , field IC50: 1330

Record CC(C)Oc1ccc(F)c(-c2nn(C(C)C)c3c2CC[C@@H](C(=O)NC2(C)CS(=O)(=O)C2)C3)c1 , field IC50: 24.5

Record CCOc1cc(-c2nn(C(C)C(C)(C)O)c3c2CC[C@@H](C(=O)N[C@@]2(C)CCS(=O)(=O)C2)C3)c(F)cn1 (single isomer, unassigned) [Example 108a] , field IC50: 44.1

Record CC(C)n1nc(-c2cccc(OC(F)F)c2)c2c1C[C@H](C(=O)NC1(C)CCS(=O)(=O)CC1)CC2 , field IC50: 24.7

Record CC(C)n1nc(-c2cc(C3CC3)ccc2F)c2c1C[C@H](C(=O)NC1(C)CS(=O)(=O)C1)OC2 , field IC50: 320

Record Cc1ncc(OC(F)F)cc1-c1nn(C(C)C)c2c1CC[C@@H](C(=O)NC1(C)CC(F)(F)C1)C2 , field IC50: 318

###

molecular target: human DGAT2 (hDGAT2) (Homo sapiens (Human)); test: DGAT2 Enzymatic Activity Assay; format: biochemical; conditions: hDGAT2 Sf-9 membrane prep; 13C18-triolein product by LC/MS/MS; 25 μM diolein, 5 μM 13C oleoyl-CoA
readout label: IC50

Record CC(C)n1nc(-c2cc(OCC(F)(F)F)ncc2F)c2c1C[C@H](C(=O)NC1(C)CS(=O)(=O)C1)CC2 [Example 43] , field IC50: 14.1 nM

Record CC(C(F)F)n1nc(-c2cc(OC(F)F)ccc2F)c2c1C[C@H](C(=O)NC1(C)CS(=O)(=O)C1)CC2 (single isomer, unassigned) [Example 48a] , field IC50: 90.3 nM

Record CCOc1cc(F)c(F)c(-c2nn(C(C)C)c3c2CC[C@@H](C(=O)NC2(C)CS(=O)(=O)C2)C3)c1 [Example 87] , field IC50: 3.6 nM

Record N#CC1(NC(=O)[C@@H]2CCc3c(-c4cncc(OC(F)F)c4)nn(-c4ccc(F)cn4)c3C2)CCOC1 (single isomer, unassigned) [Example 15b] , field IC50: 236 nM

Record CC1(NC(=O)[C@@H]2CCc3c(-c4cc(OC(F)F)ccc4F)nn(C4CCCC4O)c3C2)CS(=O)(=O)C1 (single isomer, unassigned) [Example 114b] , field IC50: 129 nM

Record CC(C)n1nc(-c2cccc(OCC#N)c2)c2c1C[C@H](C(=O)NC1(C)CS(=O)(=O)C1)CC2 [Example 96] , field IC50: > 10000 nM

###

target: human DGAT2 (hDGAT2) (Homo sapiens (Human), UniProt Q96PD7); test: DGAT2 Enzymatic Activity Assay; type: biochemical; details: hDGAT2 Sf-9 membrane prep; 13C18-triolein product by LC/MS/MS; 25 μM diolein, 5 μM 13C oleoyl-CoA
Sequence (Q96PD7 whole entry): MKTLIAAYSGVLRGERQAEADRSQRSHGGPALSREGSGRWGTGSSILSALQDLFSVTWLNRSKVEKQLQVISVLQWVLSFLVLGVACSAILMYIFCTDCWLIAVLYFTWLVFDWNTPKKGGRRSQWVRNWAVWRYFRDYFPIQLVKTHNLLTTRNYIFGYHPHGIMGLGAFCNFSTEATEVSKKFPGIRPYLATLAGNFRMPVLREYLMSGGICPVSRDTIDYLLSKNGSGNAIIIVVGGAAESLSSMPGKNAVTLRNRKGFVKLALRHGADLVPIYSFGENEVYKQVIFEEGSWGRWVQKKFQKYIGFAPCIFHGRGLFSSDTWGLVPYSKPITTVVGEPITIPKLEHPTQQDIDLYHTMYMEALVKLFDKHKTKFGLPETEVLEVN
For each of the molecules below, state its pIC50.
In plain terms, pIC50 is the concentration in mol/L turned into minus its base-10 logarithm.

Record CC(C)n1nc(-c2cncc(OC(F)(F)C(F)F)c2)c2c1C[C@H](C(=O)N[C@@]1(C)CCS(=O)(=O)C1)CC2 [Example 105] , field pIC50: 6.93

Record CC(C)n1nc(-c2cc(OCC(F)(F)F)ncc2F)c2c1C[C@H](C(=O)NC1(C)CCS(=O)(=O)CC1)CC2 [Example 45] , field pIC50: 7.74

Record CC(c1nccs1)n1nc(-c2cc(OC(F)F)ccc2F)c2c1C[C@H](C(=O)NC1(C)CS(=O)(=O)C1)CC2 (stereo partly drawn) [Example 80] , field pIC50: 6.76

Record CC(C)n1nc(-c2cc(OC(F)F)ccc2Cl)c2c1C[C@H](C(=O)NC1(C)CS(=O)(=O)C1)CC2 [Example 84] , field pIC50: 8.10

Record CC(C(F)F)n1nc(-c2cc(OC(F)F)ccc2F)c2c1C[C@H](C(=O)NC1(C)CCS(=O)(=O)CC1)CC2 (single isomer, unassigned) [Example 49b] , field pIC50: 9.22

Record CC(C)n1nc(-c2cccc(OCC(F)(F)F)c2)c2c1C[C@H](C(=O)N[C@@]1(C)CCS(=O)(=O)C1)CC2 [Example 35] , field pIC50: 7.45

Record C[C@]1(NC(=O)C2CCc3c(-c4cncc(OC(F)F)c4)nn(-c4nnc(C5CC5)s4)c3C2)CCS(=O)(=O)C1 (stereo partly drawn) [Example 5] , field pIC50: 6.27

Record CCOc1cc(-c2nn(C(C)C(C)(C)O)c3c2CC[C@@H](C(=O)NC2(C)CCS(=O)(=O)CC2)C3)c(F)cn1 (single isomer, unassigned) [Example 109a] , field pIC50: 7.31

Record CC(C)n1nc(-c2cc(C3CC3)ccc2F)c2c1C[C@H](C(=O)NC1(C)CS(=O)(=O)C1)CC2 [Example 83] , field pIC50: 7.34

Record CC1(NC(=O)[C@@H]2CCc3c(-c4cc(OC(F)F)ccc4F)nn(C4CCC4)c3C2)CS(=O)(=O)C1 [Example 57] , field pIC50: 7.64

Record CC(C)n1nc(-c2cc(OC(F)F)ccc2F)c2c1CC(C(=O)NC1(C)CS(=O)(=O)C1)CO2 (racemic) [Example 121] , field pIC50: 7.67

Record CCOc1ccc(F)c(-c2nn(C(C)C)c3c2CC[C@@H](C(=O)NC2(C)CCS(=O)(=O)CC2)C3)c1 [Example 54] , field pIC50: 8.74

Record CC(C)n1nc(-c2cc(OC(F)(F)F)cnc2Cl)c2c1C[C@H](C(=O)NC1(C)CS(=O)(=O)C1)CC2 [Example 88] , field pIC50: 6.56

Record CCC1(NC(=O)[C@@H]2CCc3c(-c4cccc(OC(F)F)c4)nn(C(C)C)c3C2)CS(=O)(=O)C1 [Example 69] , field pIC50: 7.05

Record CC(n1nc(-c2cc(OCC(F)(F)F)ncc2F)c2c1C[C@H](C(=O)NC1(C#N)CCS(=O)(=O)CC1)CC2)C(C)(C)O (single isomer, unassigned) [Example 113a] , field pIC50: 7.56

Record CCOc1cc(-c2nn(C(C)C)c3c2CC[C@@H](C(=O)NC2(C)CCS(=O)(=O)CC2)C3)c(Cl)cn1 [Example 39] , field pIC50: 8.11

Record C[C@]1(NC(=O)[C@@H]2CCc3c(-c4cccc(C5(F)CC5)c4)nn(-c4ccc(F)cc4)c3C2)CCS(=O)(=O)C1 [Example 17] , field pIC50: 7.15

Record CC(C)n1nc(-c2cc(OCC(F)F)ncc2F)c2c1C[C@H](C(=O)NC1(C)CCS(=O)(=O)CC1)CC2 [Example 40] , field pIC50: 8.34

Record N#CC1(NC(=O)[C@@H]2CCc3c(-c4cncc(OC(F)F)c4)nn(-c4ccc(F)cn4)c3C2)CCOC1 (single isomer, unassigned) [Example 15a] , field pIC50: 7.76

Record CC(C1CC1)n1nc(-c2cc(OC(F)F)ccc2F)c2c1C[C@H](C(=O)NC1(C)CS(=O)(=O)C1)CC2 (single isomer, unassigned) [Example 58a] , field pIC50: 7.63

Record CC(C)n1nc(-c2cc(OC(F)F)ccc2F)c2c1C[C@H](C(=O)N[C@]1(C)CCS(=O)(=O)C1)CC2 [Example 29] , field pIC50: 7.22

Record CC(C)n1nc(-c2cccc(C3CC3)c2)c2c1C[C@H](C(=O)NC1(C)CS(=O)(=O)C1)CO2 [Example 125] , field pIC50: 7.65

Record CC(C)n1nc(-c2cc(OC3CC3)ncc2F)c2c1C[C@H](C(=O)NC1(C)CCS(=O)(=O)CC1)CC2 [Example 37] , field pIC50: 7.03

Record CC(C)n1nc(-c2cc(OC3CC3)ccc2F)c2c1C[C@H](C(=O)NC1(C)CS(=O)(=O)C1)CC2 [Example 85] , field pIC50: 7.81

Record CC(C)n1nc(-c2cc(OC(F)F)ccc2F)c2c1C[C@H](C(=O)NC1(C)CS(=O)(=O)C1)OC2 [Example 127] , field pIC50: 6.46
